Tested on: CAKI-1 renal
Test: NCI-60 one-dose screen, 48 h
Conditions: 10 µM unless noted
Method: Growth inhibition of the CAKI-1 human tumor cell line is measured as a screen for anti-cancer activity. Cells are grown in 96 well plates and exposed to the test compound for 48 hours. Compounds are tested at a single concentration, which is 10^-5 M for most compounds. The reported endpoint is percent growth (GI% or GIPRCNT), where numbers from 0 - 100% represent growth inhibition, and numbers from -100% - 0 represent cell death. For example, a value of 40 represents 60% growth inhibition. […]
About 83,000 compounds went through this panel and 20% of them were active in at least one assay; those are over-represented in the sample as a whole. Active and inactive are the calls of the source. The calls were made as follows: active = growth percent below 10; inactive = the rest.
Outcome (select one): active, inactive

Query string: What was the test verdict on Cc1nc2nc(N)nc(N)c2nc1C ?
Result string: inactive

Query string: What was the test verdict on CC(C)(C)n1cc(-c2ccnc(NCCNS(=O)(=O)c3ccccc3)c2)c(-c2cccc(O)c2)n1 ?
Result string: inactive

Query string: What was the test verdict on CCOC(=O)c1c2ncccc2n2c(=O)n(-c3ccc(Cl)cc3)nnc12 ?
Result string: inactive

Query string: What was the test verdict on CCOC(=O)C(=Cc1ccccc1F)C(=O)OCC ?
Result string: inactive

Query string: What was the test verdict on COc1ccc2nc3cc(Cl)ccc3c(N3CCN(c4nccc(Nc5ccc(Cl)cc5)n4)CC3)c2c1 ?
Result string: inactive

Query string: What was the test verdict on O=C1c2c[n+](Cc3ccccc3)ccc2-c2nc3ccccc3c3ccnc1c23 ?
Result string: inactive

Query string: What was the test verdict on COc1ccc2c(c1)C(=O)/C(=C/c1cccc(OCC(=O)Nc3nc4c(s3)CCCC4)c1)O2 ?
Result string: active

Query string: What was the test verdict on CCOc1ccc(Nc2nc(-c3c(C)nc4ncccn34)cs2)cc1 ?
Result string: inactive

Query string: What was the test verdict on O=C([C@@H](COCc1ccccc1)N1C(=O)[C@@H](N2C(=O)OC[C@@H]2c2ccccc2)[C@H]1/C=C/c1ccccc1)N1CCC(CCN2CCCCC2)CC1 ?
Result string: inactive

Query string: What was the test verdict on C#Cc1nc(Nc2cc(C)[nH]n2)c2ccccc2n1 ?
Result string: active

Query string: What was the test verdict on O=C(Nc1nc(-c2ccccc2)cc(-c2ccc(Cl)cc2)n1)c1ccncc1 ?
Result string: inactive

Query string: What was the test verdict on CC1=C(NCCN2CCCC2)C(=O)c2c(OCc3cccc(Cl)c3)cccc2C1=O ?
Result string: inactive

Query string: What was the test verdict on c1ccc(-c2nc(N3CCOCC3)c3c4c(sc3n2)CCCCC4)nc1 ?
Result string: inactive

Query string: What was the test verdict on CSc1nc(NCCO)c(C#N)c(-c2cccc(N)c2)n1 ?
Result string: inactive

Query string: What was the test verdict on COc1ccc(C(=O)/C=C/c2cc3ccccc3[nH]c2=O)cc1 ?
Result string: inactive

Query string: What was the test verdict on O=C(CN1CCN(c2cc3c(cc2F)c(=O)c(C(=O)O)cn3C2CC2)CC1)Nc1cc(=O)[nH]c(=O)[nH]1 ?
Result string: inactive

Query string: What was the test verdict on COc1ccc(/C=C2\CN(C(=O)CCN3CCC(=NO)CC3)C/C(=C\c3ccc(OC)cc3)C2=O)cc1 ?
Result string: inactive

Query string: What was the test verdict on CC1CN(Cc2ccco2)C(=S)N(c2ccccc2)C1=O (stereo unspecified) ?
Result string: inactive

Query string: What was the test verdict on O=C1c2cc3c(cc2-c2c1c1cc(Cl)c(Cl)cc1c(=O)n2CCCn1ccnc1)OCO3 ?
Result string: inactive

Query string: What was the test verdict on CCCCCCCCCCNC(=O)CCl ?
Result string: active

Query string: What was the test verdict on O=C1/C(=C/c2ccc(Cl)cc2Cl)CN(S(=O)(=O)c2ccccc2)C/C1=C\c1ccc(Cl)cc1Cl ?
Result string: active

Query string: What was the test verdict on O=C(Nc1cccc2[nH]c(C(F)(F)F)nc12)c1ccc(Br)cc1F ?
Result string: inactive

Query string: What was the test verdict on CCOC(=O)CC(=O)c1c(C)cc(C)cc1C ?
Result string: inactive

Query string: What was the test verdict on COc1ccc2nc3cc(Cl)ccc3c(N3CCN(c4ccnc(N5CCN(C)CC5)n4)CC3)c2c1 ?
Result string: inactive

Query string: What was the test verdict on COc1ccc(-c2cc(-c3cccnc3)nc3sc4c(=O)n(-c5ccc(C)cc5)cnc4c23)cc1OC ?
Result string: inactive

Query string: What was the test verdict on CN1CCN(Cc2ccc(NC(=O)c3cncc(C#Cc4cnc(N)c5cccnc45)c3)cc2C(F)(F)F)CC1 ?
Result string: active

Query string: What was the test verdict on O=C(CO[N+](=O)[O-])Nc1ccc(C(=O)/C=C/c2ccc3c(c2)OCO3)cc1 ?
Result string: inactive

Query string: What was the test verdict on COc1cc2c(cc1O)CCc1cc(O)cc(OC)c1-2 ?
Result string: inactive

Query string: What was the test verdict on O=C1C2CC=CCC2C(=O)N1CNc1ccc(Cl)cc1 (stereo unspecified) ?
Result string: inactive

Query string: What was the test verdict on O=C(/C=C\c1cccc([N+](=O)[O-])c1)c1ccccc1 ?
Result string: inactive

Query string: What was the test verdict on Cc1ccc(C2CC3c4ccccc4C2C2CCCCN32)cc1 (stereo unspecified) ?
Result string: inactive

Query string: What was the test verdict on Cc1csc2ccc(Cl)cc12 ?
Result string: inactive

Query string: What was the test verdict on COc1ccc(-c2c(C)noc2-c2ccc(O)cc2O)cc1 ?
Result string: inactive

Query string: What was the test verdict on C=C(CN1CCN(c2cccc(C(F)(F)F)n2)CC1)c1ccc(C(=O)Nc2ccccc2N)cc1 ?
Result string: inactive

Query string: What was the test verdict on O=C(O)c1ccc(=O)[nH]n1 ?
Result string: inactive

Query string: What was the test verdict on C=C1CC[C@@H]2[C@](C)(COC(C)=O)[C@H](OC(C)=O)CC[C@@]2(C)[C@@H]1CC(Nc1ccc(S(=O)(=O)Nc2ccc(Cl)nn2)cc1)C1=CCOC1=O (stereo partly specified) ?
Result string: inactive
